# Tested on: Vaccinia virus
# protocol.text: Antiviral activity against Vaccinia virus infected in human HEL cells assessed as protection against virus-induced cytopathogenicity
# Assay type: functional
# experimental.setup: Orthopoxvirus vaccinia
For each entry below, report its MIC50 value.

Given the entry C=CCNC(=S)Nc1ccc(NS(C)(=O)=O)c(Oc2ccccc2)c1 , report its measured MIC50.
> 40 µg/mL

Given the entry CS(=O)(=O)Nc1ccc(NC(=S)NCc2ccccc2)cc1Oc1ccccc1 , report its measured MIC50.
> 8 µg/mL

Given the entry CCNC(=S)Nc1ccc(NS(C)(=O)=O)c(Oc2ccccc2)c1 , report its measured MIC50.
40 µg/mL

* * *

For each entry below, report its MIC50 value.
# Test system: Vaccinia virus
# protocol.text: Antiviral activity against Vaccinia virus infected in human HEL cells assessed as protection against virus-induced cytopathogenicity
# Format: functional
# experimental.setup: Orthopoxvirus vaccinia
Quick reminder: number only, in µg/mL, skip the unit.

Form entry - test system: Vaccinia virus; read-out: MIC50; compound: Nc1nc2c(ncn2COC(CO)CO)c(=O)[nH]1 [GANCICLOVIR]
100

Form entry - test system: Vaccinia virus; read-out: MIC50; compound: O=c1[nH]c(=O)n([C@H]2C[C@H](O)[C@@H](CO)O2)cc1/C=C/Br [BRIVUDINE]
2

Form entry - test system: Vaccinia virus; read-out: MIC50; compound: CS(=O)(=O)Nc1ccc(NC(=S)Nc2ccc([N+](=O)[O-])cc2)cc1Oc1ccccc1
8

Form entry - test system: Vaccinia virus; read-out: MIC50; compound: NC(=O)c1ncn([C@@H]2O[C@H](CO)[C@@H](O)[C@H]2O)n1 [RIBAVIRIN]
150

Form entry - test system: Vaccinia virus; read-out: MIC50; compound: CNC(=S)Nc1ccc(NS(C)(=O)=O)c(Oc2ccccc2)c1
100

* * *

# Tested on: Vaccinia virus
# protocol.text: Antiviral activity against Vaccinia virus infected in human HEL cells assessed as protection against virus-induced cytopathogenicity
# Format: functional
# experimental.setup: Orthopoxvirus vaccinia
measured.endpoint: MIC50

Given the entry Nc1nc2c(ncn2COCCO)c(=O)[nH]1 , report its measured MIC50.
> 250 µg/mL

Given the entry CS(=O)(=O)Nc1ccc(NC(=S)NCCc2ccc(Cl)cc2)cc1Oc1ccccc1 , report its measured MIC50.
> 100 µg/mL

Given the entry CCCNC(=S)Nc1ccc(NS(C)(=O)=O)c(Oc2ccccc2)c1 , report its measured MIC50.
> 40 µg/mL

Given the entry CS(=O)(=O)Nc1ccc(NC(=S)NC2CCCCC2)cc1Oc1ccccc1 , report its measured MIC50.
> 8 µg/mL

Given the entry CS(=O)(=O)Nc1ccc(NC(=S)NCCc2ccccc2)cc1Oc1ccccc1 , report its measured MIC50.
> 8 µg/mL
